Reference for the values: paper PMC8200237

IC50 reference
Tested on: PC3 human prostate cancer cells
ASSAY DETAILS: MTT cell viability assay, PC3
Format: cell-based
MEASUREMENT CONDITIONS: MTT test, 72 h; read-out: IC50 (µM) ± S.D. PC3
ASSAY METRIC: IC50 (µM)

[[record]]
compound = "NC1CC=CCC1N.O=P1(O)[O][Pt][O]P(=O)(O)O1 (racemic)"
assay_metric = "IC50"
result_value = 100

[[record]]
compound = "O=C1[O][Pt]2([NH][C@@H]3CCCC[C@H]3[NH]2)[O]C1=O"
assay_metric = "IC50"
result_value = 100

[[record]]
compound = "[NH2][Pt]([NH2])([Cl])[Cl] [CDDP, cisplatin, reference compound]"
assay_metric = "IC50"
result_value = 9

[[record]]
compound = "N[C@@H]1CCCC[C@H]1N.O=P([O-])(O)OP(=O)([O-])O.[Pt+2] [Compound 3, reference compound]"
assay_metric = "IC50"
result_value = 100

[[record]]
compound = "O=P1(O)OP(=O)(O)[O][Pt]2([NH]C3CCC(CC3)[NH]2)[O]1 (stereo not drawn)"
assay_metric = "IC50"
result_value = 100

[[record]]
compound = "O=P1([O-])OP(=O)([O-])[O][Pt]2([NH]C3CCCC(C3)[NH]2)[O]1.[Na+].[Na+] (stereo not drawn) [Compound 1, Na2[Pt(pyrophosphato)(cis-1,3-DACH)]]"
assay_metric = "IC50"
result_value = 29

